Assay: reduced mouse 2C T cell binding to pMHC/ICAM-1 vesicles – MLPCN validation set, flow cytometry, LFA-1/ICAM-1 modulator project, pilot screen (AID 2523)
Details: 2C mouse CD8+ T cells, at 7 µM, stronger effect = lower value; measured here: CD8+/vesicle+ event percentage
Field: label. Allowed values: Met (double positive events < 60%) or Not met (double positive events >= 60%).

Field: example entries. Status: answers known.
{"columns": ["COMPOUND", "CATEGORY"],
 "data": [
  ["Cc1cccc(CN2CCN(C(c3ccccc3)c3ccc(Cl)cc3)CC2)c1 (stereo unspecified)", "Not met"],
  ["CCOC(=O)N1CCN(Cc2nc(Cc3cccc(F)c3)no2)CC1", "Not met"]
]}

Inquiry: Could you please tell me whether double positive events recorded for Fc1ccccc1CNCCC(Cc1ccccc1)c1ccc2c(c1)OCO2 (stereo unspecified) is less than 60%?
Reply text: Not met

Inquiry: Could you please tell me whether double positive events recorded for "COc1cc(NC(=S)NC(=O)c2cccs2)ccc1NC(=O)C(C)C" is less than 60%?
Reply text: Not met

Inquiry: Could you please tell me whether double positive events recorded for CC(=O)C1=C(O)C(=O)N(CC(=O)O)C1c1ccccc1Cl (stereo unspecified) is less than 60%?
Reply text: Met

Inquiry: Could you please tell me whether double positive events recorded for COc1ccc([C@H]2[C@H](C(=O)OC(C)(C)C)N3N=Cc4ccccc4C3C23C(=O)c2ccccc2C3=O)cc1OC (stereo partly specified) is less than 60%?
Reply text: Met

Inquiry: Could you please tell me whether double positive events recorded for CC(C)C[C@H]1C(=O)N2CCC[C@H]2[C@]2(O)O[C@](NC(=O)[C@@H]3C=C4c5cccc6[nH]c(Br)c(c56)CC4N(C)C3)(C(C)C)C(=O)N12 (stereo partly specified) is less than 60%?
Reply text: Met
